biological target: T1, soluble KDR extracellular domain (ECD) (Calbiochem) (human, UniProt P35968 20-764); test: Limited Antigen ELISA, KDR coat 3.125 ng/mL, supernatant 1:25
T1 construct: extracellular domain; Bought protein; also called KDR-ECD; VEGF Receptor 2 D1-7, Cat. #676490
T1 sequence (P35968 20-764): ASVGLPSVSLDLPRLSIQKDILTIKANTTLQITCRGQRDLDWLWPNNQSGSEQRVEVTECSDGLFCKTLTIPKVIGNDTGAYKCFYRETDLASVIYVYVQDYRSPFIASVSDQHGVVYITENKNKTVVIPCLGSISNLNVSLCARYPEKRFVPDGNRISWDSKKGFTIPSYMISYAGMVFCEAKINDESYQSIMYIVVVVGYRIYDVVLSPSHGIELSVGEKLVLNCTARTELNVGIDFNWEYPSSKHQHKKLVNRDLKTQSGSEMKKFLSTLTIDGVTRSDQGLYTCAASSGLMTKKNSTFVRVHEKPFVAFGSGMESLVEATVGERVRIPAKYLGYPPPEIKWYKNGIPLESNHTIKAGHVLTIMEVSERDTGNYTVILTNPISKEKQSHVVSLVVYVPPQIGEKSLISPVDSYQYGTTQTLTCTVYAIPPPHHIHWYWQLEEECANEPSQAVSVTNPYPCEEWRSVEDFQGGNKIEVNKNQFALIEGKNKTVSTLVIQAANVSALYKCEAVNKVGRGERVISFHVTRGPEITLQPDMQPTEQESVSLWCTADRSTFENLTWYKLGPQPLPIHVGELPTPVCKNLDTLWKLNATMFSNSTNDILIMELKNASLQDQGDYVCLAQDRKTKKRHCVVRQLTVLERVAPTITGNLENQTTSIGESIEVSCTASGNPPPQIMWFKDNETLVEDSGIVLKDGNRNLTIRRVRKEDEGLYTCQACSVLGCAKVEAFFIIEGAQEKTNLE
readout_type: ELISA reading
Number only, please.

Prompt: Which ELISA reading is reported for this binder? 32G7 (antibody, V domains shown, Fully human mAb from XenoMouse hybridoma, tested as hybridoma supernatant) VH: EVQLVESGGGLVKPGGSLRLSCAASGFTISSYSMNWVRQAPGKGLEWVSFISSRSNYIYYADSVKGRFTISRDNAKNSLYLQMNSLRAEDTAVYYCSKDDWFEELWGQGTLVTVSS VL: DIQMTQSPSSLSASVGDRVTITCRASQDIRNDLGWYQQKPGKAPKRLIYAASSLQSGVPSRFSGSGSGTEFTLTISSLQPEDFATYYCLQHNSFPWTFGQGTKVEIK
Response: 0.07

Prompt: Which ELISA reading is reported for this binder? 30F6 (antibody, V domains shown, Fully human mAb from XenoMouse hybridoma, tested as hybridoma supernatant) VH: QVQLVESGGGVVQPGRSLRLSCAASGFTFSTYGMHWVRQAPGKGLEWVAVIWYDGSNKYYADSVKGRFTISRDNSKNTLYLQMNSLRAEDTAVYYCACSYWNDDYYYGMDVWGQGTTVTVSS VL: DIQMTQSPSSLSASVGDRVIITCRASQNISSYLIWYQQKPGKAPNLLIHTTSSLQRGVPSRFSGSGSGTDFTLTISSLQPEDFATYYCQQSYSAPLTFGGGTKVEIK
Response: 0.1

Prompt: Which ELISA reading is reported for this binder? 33B1 (antibody, V domains shown, Fully human mAb from XenoMouse hybridoma, tested as hybridoma supernatant) VH: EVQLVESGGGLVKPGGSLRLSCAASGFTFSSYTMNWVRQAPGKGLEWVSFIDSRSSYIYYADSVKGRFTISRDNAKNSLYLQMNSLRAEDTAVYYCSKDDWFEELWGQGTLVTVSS VL: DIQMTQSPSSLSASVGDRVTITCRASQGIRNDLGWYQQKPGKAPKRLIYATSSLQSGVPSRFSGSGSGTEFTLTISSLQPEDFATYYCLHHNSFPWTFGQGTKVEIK
Response: 0.08
